test: HepG2 cytotoxicity, primary screen, cytotoxicity control for P. falciparum antimalarial project, cell-based, ATP luminescence (AID 2303); conditions: HepG2 viability, 24-48 h, at 10 µM
Calls of active or inactive are those of the source.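 The calls were made as follows: active = inhibition above 50%; inactive = the rest.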
The categories you may choose from are True = active, False = inactive

Test call for this compound, please: "COc1ccccc1C1CCN(CCCCNC(=O)c2ccc(/C=C/c3cc(Cl)cc(Cl)c3)cc2)CC1" False

Test call for this compound, please: "Cc1cc(N[C@@H](CC(C)C)C(=O)NCCc2ccccc2)nc(NCCc2ccc(F)cc2)n1" False

Test call for this compound, please: "CC(=O)N1CCC(C(=O)Nc2ccc(-c3cccc(-c4nc5ccc(C(F)(F)F)cc5[nH]4)c3)cc2)CC1" True

Test call for this compound, please: O=C(Nc1ccc(Br)cc1)N(CCN1CCOCC1)CC(O)COc1ccc(Cl)c(F)c1 (centres undefined) False

Test call for this compound, please: "COc1ccccc1-n1ccnc1SCC(=O)Nc1cccc(C(F)(F)F)c1" False
